Binder (t1/2 ≥ 0.5 h): half-life of peptide-SLA-1*04:01 complex values by entry
test system: SLA-1*04:01; assay: Peptide-MHC class I complex stability, scintillation proximity assay (SPA); parameters: species or system pig; settings: biotinylated recombinant SLA heavy chain, 125I-β2m, excess unlabeled β2m, read every 40 min, number only if t1/2 ≥ 0.5 h, '-' = not stably binding

Past entries and their recorded results:
PMDNSWKIF [IDO96, porcine IDO-derived 9-11mer peptide] ... 42 min
YPDTDVILMCF [RhoC59, porcine RhoC-derived 9-11mer peptide] ... 60 min

**Q:** State its Binder (t1/2 ≥ 0.5 h): half-life of peptide-SLA-1*04:01 complex: MANRISAFGY [RhoC39, porcine RhoC-derived 9-11mer peptide]
**A:** 42 min

====

Binder (t1/2 ≥ 0.5 h): half-life of peptide-SLA-1*07:02 complex by entry:
tested on: SLA-1*07:02; assay: Peptide-MHC class I complex stability, scintillation proximity assay (SPA); parameters: species or system pig; settings: biotinylated recombinant SLA heavy chain, 125I-β2m, excess unlabeled β2m, read every 40 min, number only if t1/2 ≥ 0.5 h, '-' = not stably binding
Quick reminder: number only, in h, skip the unit.

**Q:** # return recorded Binder (t1/2 ≥ 0.5 h): half-life of peptide-SLA-1*07:02 complex for input ALWDTAGQEDY [RhoC1, porcine RhoC-derived 9-11mer peptide]
**A:** 0.9

**Q:** Dear colleague, please send me the reported Binder (t1/2 ≥ 0.5 h): half-life of peptide-SLA-1*07:02 complex for LVLGYITMAY [IDO73, porcine IDO-derived 9-11mer peptide] when you can.
**A:** 4.0

**Q:** Specify reported Binder (t1/2 ≥ 0.5 h): half-life of peptide-SLA-1*07:02 complex for the sequence shown: CVQAMVSLRNY [IDO9, porcine IDO-derived 9-11mer peptide]
**A:** 3.1

**Q:** Look up Binder (t1/2 ≥ 0.5 h): half-life of peptide-SLA-1*07:02 complex of MALDWWSPM [IDO75, porcine IDO-derived 9-11mer peptide] and report it.
**A:** 0.5

====

test system: SLA-3*04:01; experiment: Peptide-MHC class I complex stability, scintillation proximity assay (SPA); set-up: species or system pig; conditions: biotinylated recombinant SLA heavy chain, 125I-β2m, excess unlabeled β2m, read every 40 min, number only if t1/2 ≥ 0.5 h, '-' = not stably binding
measurement.kind: Binder (t1/2 ≥ 0.5 h): half-life of peptide-SLA-3*04:01 complex

RNFLHSLESGP [IDO107, porcine IDO-derived 9-11mer peptide] ... 42 min

Shift focus to the following entry.
**Q:** Give measured Binder (t1/2 ≥ 0.5 h): half-life of peptide-SLA-3*04:01 complex for KNKRRRGCPI [RhoC31, porcine RhoC-derived 9-11mer peptide] (SLA-3*04:01).
**A:** 42 min

====

Collected Binder (t1/2 ≥ 0.5 h): half-life of peptide-SLA-1*07:02 complex values appear next to each entry.
test system: SLA-1*07:02; experiment: Peptide-MHC class I complex stability, scintillation proximity assay (SPA); parameters: species or system pig; details: biotinylated recombinant SLA heavy chain, 125I-β2m, excess unlabeled β2m, read every 40 min, number only if t1/2 ≥ 0.5 h, '-' = not stably binding

NPLLSEGLLY [IDO88, porcine IDO-derived 9-11mer peptide] ... 24.0 h
PPILVYADCV [IDO99, porcine IDO-derived 9-11mer peptide] ... 3.5 h
PPAHRNFLHSL [IDO98, porcine IDO-derived 9-11mer peptide] ... 0.7 h

Let's switch to this sequence now.
**Q:** Retrieve Binder (t1/2 ≥ 0.5 h): half-life of peptide-SLA-1*07:02 complex measured for EPVRSEEGRDM [RhoC20, porcine RhoC-derived 9-11mer peptide] and print it.
**A:** 0.5 h
